Hey, just so you know, these numbers are from ChEMBL document CHEMBL1201862.

Test system: U-251
measurementNotes: NCI tumour cell line growth inhibition, 48 h
The source made the active and inactive calls. Cut-off read from the data, not from the text of the source: active = GI50 up to about 1.1 µM and inactive = higher.

- compound: "O=P(O)(O)OP(=O)(O)O"
  assayTarget: "U-251"
  GI50: "> 100 µM (inactive)"
- compound: "O=C(O)c1cc2ccccc2c(/N=N/c2ccc(S(=O)(=O)Nc3nccs3)cc2)c1O"
  assayTarget: "U-251"
  GI50: "> 100 µM (inactive)"
- compound: "Cc1c(OCc2ccccc2)c(=O)ccn1CCc1c[nH]c2ccccc12"
  assayTarget: "U-251"
  GI50: "29.6 µM (inactive)"
- compound: "COc1cc(CCCl)c(CC2=NCCc3cc(OC)c(OC)cc32)cc1OC"
  assayTarget: "U-251"
  GI50: "> 100 µM (inactive)"
- compound: "BrC1=CC=C2NC=CC3=CC=NC1C32 (stereo not given)"
  assayTarget: "U-251"
  GI50: "7.67 µM (inactive)"
- compound: "CC(=O)NC1C(OC(C)C(=O)NC(C(=O)NC(CCC(=O)NCCCNC2c3ccccc3Nc3cccc([N+](=O)[O-])c32)C(N)=O)C(C)C)C(O)C(CO)OC1(C)OCc1ccccc1 (stereo not given)"
  assayTarget: "U-251"
  GI50: "1.39 µM (inactive)"
- compound: "CC1=NN(c2nc(N)nc(COCc3nc(N)nc(N4N=C(C)CC4(C)C)n3)n2)C(C)(C)C1"
  assayTarget: "U-251"
  GI50: "> 100 µM (inactive)"
- compound: "COC(=O)c1c(C)cccc1C1CN=NC12Cc1ccc(C)cc1C2=O (stereo not given)"
  assayTarget: "U-251"
  GI50: "41.9 µM (inactive)"
- compound: "[O-][n+]1ccccc1Sc1nc(Sc2cccc[n+]2[O-])nc(Sc2cccc[n+]2[O-])n1"
  assayTarget: "U-251"
  GI50: "1.69 µM (inactive)"
- compound: "CC1OC(OC2C(CO)OC(O[C@H]3CC[C@@]4(C)C(=CC[C@H]5[C@@H]6C[C@@H]7O[C@](O)(CC[C@H](C)COC8OC(CO)C(O)C(O)C8O)[C@@H](C)[C@@H]7[C@@]6(C)CC[C@@H]54)C3)C(OC3OC(C)C(O)C(O)C3O)C2O)C(O)C(O)C1O (stereo not given in full)"
  assayTarget: "U-251"
  GI50: "3.15 µM (inactive)"
- compound: "O=C(c1ccccc1)C1C(C(=O)c2ccccc2)N1Cc1ccccc1 (stereo not given)"
  assayTarget: "U-251"
  GI50: "27.6 µM (inactive)"
- compound: "CSc1nc2c(ncn2C2OCC(O)C(O)C2O)c(=O)n1C (stereo not given)"
  assayTarget: "U-251"
  GI50: "> 100 µM (inactive)"
- compound: "CC(=O)N(C(C)=O)n1c(-c2ccccc2)n[nH]c1=O"
  assayTarget: "U-251"
  GI50: "> 100 µM (inactive)"
- compound: "CC(C)(C)[Si](C)(C)OCC#C[C@@]1(O)CCCCC1CC(Sc1ccccc1)Sc1ccccc1 (stereo not given in full)"
  assayTarget: "U-251"
  GI50: "13.3 µM (inactive)"
- compound: "Cc1nnc2ccccc2c1O"
  assayTarget: "U-251"
  GI50: "> 100 µM (inactive)"
- compound: "N#CC(=N)c1ncn(CCO)c1NC(=O)C(F)(F)F"
  assayTarget: "U-251"
  GI50: "> 100 µM (inactive)"
- compound: "O=C(O)c1ccc(Nc2ccnc3cc(Cl)ccc23)cc1O"
  assayTarget: "U-251"
  GI50: "95.1 µM (inactive)"
- compound: "O=C1OC(c2ccccc2)=N/C1=C\\c1ccc(Cl)cc1"
  assayTarget: "U-251"
  GI50: "> 100 µM (inactive)"
- compound: "O=C(NC/C(Cl)=C/Cl)Nc1c2ccccc2nc2ccccc12"
  assayTarget: "U-251"
  GI50: "70.8 µM (inactive)"
- compound: "c1cnn(C23C4C5C6C4C2C6C53)c1 (stereo not given)"
  assayTarget: "U-251"
  GI50: "> 100 µM (inactive)"

----------
Tested on: SR
measurementNotes: NCI tumour cell line growth inhibition, 48 h
Where a name gives a salt, the structure may show the parent alone. The source made the active and inactive calls. Rule as the data show it: active = GI50 up to about 1.1 µM and inactive = higher.
Possible outcomes: active, inactive

- compound: "Cc1cc(O)c(O)c(Oc2cc(C)cc(O)c2O)c1"
  assayTarget: "SR"
  labelValue: "inactive"
- compound: "CCOC(=O)C1Oc2ccc([N+](=O)[O-])c3c2C1(O)CCC3 (stereo not given)"
  assayTarget: "SR"
  labelValue: "inactive"
- compound: "CCOC(=O)c1c(N2CCCC2)[nH]c(=O)c(C(c2ccc(Cl)c([N+](=O)[O-])c2)c2c(O)c(C(=O)OCC)c(N3CCCC3)[nH]c2=O)c1O"
  assayTarget: "SR"
  labelValue: "inactive"
- compound: "N#CC(c1ccc(Cl)cc1)c1cccc(C(C#N)c2ccc(Cl)cc2)n1 (stereo not given)"
  assayTarget: "SR"
  labelValue: "inactive"
- compound: "Cc1c(OCc2ccccc2)c(=O)ccn1CCc1c[nH]c2ccccc12"
  assayTarget: "SR"
  labelValue: "inactive"
- compound: "COC(=O)c1onc(C2OC(C)(C)OC2C(O)COC(c2ccccc2)(c2ccccc2)c2ccccc2)c1C(=O)OC (stereo not given)"
  assayTarget: "SR"
  labelValue: "inactive"
- compound: "CN(C)CCOC(c1ccccc1)c1ccccc1 [DIPHENHYDRAMINE HYDROCHLORIDE]"
  assayTarget: "SR"
  labelValue: "inactive"
- compound: "CC(C)[C@]12O[C@H]1[C@@H]1O[C@@]13[C@@]1(C)CCC4=C(COC4=O)[C@@H]1C[C@@H]1O[C@@]13C2=O [TRIPTONIDE]"
  assayTarget: "SR"
  labelValue: "active"
- compound: "CCCCOP1(=O)C=CC(Cl)=C(C)C1 (stereo not given)"
  assayTarget: "SR"
  labelValue: "inactive"
- compound: "Cc1ccc(O)c(C2=CC(c3cccc(Br)c3)SC(=N)N2)c1 (stereo not given)"
  assayTarget: "SR"
  labelValue: "inactive"
- compound: "Cc1nc(O)c(O)c(CN2CCCCC2)n1"
  assayTarget: "SR"
  labelValue: "inactive"
- compound: "CC1(C)O[C@@H]2C[C@H]3[C@@H]4C[C@H](F)C5=CC(=O)C=C[C@]5(C)[C@@]4(F)[C@@H](O)C[C@]3(C)[C@]2(C(=O)CO)O1 [FLUOCINOLONE ACETONIDE]"
  assayTarget: "SR"
  labelValue: "inactive"
- compound: "COC(=O)c1c(C)cccc1C1CN=NC12Cc1ccccc1C2=O (stereo not given)"
  assayTarget: "SR"
  labelValue: "inactive"
- compound: "O=S(=O)(/C=C/C(=C/c1ccccc1)S(=O)(=O)c1ccccc1)c1ccccc1"
  assayTarget: "SR"
  labelValue: "inactive"
- compound: "COc1cc(Nc2cnc3cc(C(F)(F)F)ccc3n2)cc(OC)c1OC"
  assayTarget: "SR"
  labelValue: "inactive"
- compound: "O=C(O)c1ccc(-c2nc3cc(Cl)ccc3[nH]2)cc1"
  assayTarget: "SR"
  labelValue: "inactive"
- compound: "COc1cc(OCc2nc3cc(C(F)(F)F)ccc3nc2-c2ccccc2)cc(OC)c1OC"
  assayTarget: "SR"
  labelValue: "inactive"
- compound: "O=C(CN1CCOCC1)c1ccc2c(c1)oc(=O)n2CCN1CCCC1"
  assayTarget: "SR"
  labelValue: "inactive"
- compound: "COc1ccc2c(ccc3c(COC(=O)NC(C)C)c(COC(=O)NC(C)C)n(C)c32)c1"
  assayTarget: "SR"
  labelValue: "active"
- compound: "CCCCCN1C(=O)C(Cc2ccccc2)N=C(c2ccc(O)cc2)c2cc(Cl)ccc21 (stereo not given)"
  assayTarget: "SR"
  labelValue: "inactive"
- compound: "COc1cccc(/N=N/N2CCCC2)c1"
  assayTarget: "SR"
  labelValue: "inactive"
- compound: "c1ccc(-c2cc(-c3cc(-c4ccccc4)[nH]n3)[nH]n2)cc1"
  assayTarget: "SR"
  labelValue: "inactive"
- compound: "COc1ccc(CNC(=O)[C@H](Cc2ccc(O)cn2)NC(C)=O)cc1OC"
  assayTarget: "SR"
  labelValue: "inactive"
- compound: "Cc1cc(S(=O)(=O)N/C(=C(\\C#N)C(=O)c2ccc(Cl)cc2)[n+]2ccc(N(C)C)cc2)c([S-])cc1Cl"
  assayTarget: "SR"
  labelValue: "inactive"
- compound: "CN(C)Cc1cc(C=O)cc(CN(C)C)c1O"
  assayTarget: "SR"
  labelValue: "inactive"
- compound: "COc1ccc(C2=C(Cl)C(=O)O/C2=C\\c2ccc(OC)c(Br)c2)cc1Cl"
  assayTarget: "SR"
  labelValue: "inactive"
- compound: "COC(=O)c1cccc2cccc(C(=O)Nc3ccc(Cl)cc3)c12"
  assayTarget: "SR"
  labelValue: "inactive"
- compound: "C1=Nc2sc3c(c2C2=NCCN12)CCCC3"
  assayTarget: "SR"
  labelValue: "inactive"
- compound: "O=C1Cc2c(-c3ccccc3)cc(-c3cccc(Cl)c3)nc2-c2ccccc2N1"
  assayTarget: "SR"
  labelValue: "inactive"
- compound: "C[n+]1c(-c2ccc(NC(=O)c3ccc(C(=O)Nc4ccc(-c5cn6ccccc6[n+]5C)cc4)cc3)cc2)cn2ccccc21"
  assayTarget: "SR"
  labelValue: "inactive"
- compound: "CCOP(=O)(OCC)OC1CC(n2cnc3c(N(CC)CC)ncnc32)OC1CO[Si](C)(C)C(C)(C)C (stereo not given)"
  assayTarget: "SR"
  labelValue: "inactive"
- compound: "Cc1ccc(SC2C(=O)C3CC(OCc4ccccc4)C2(C)C3(C)C)cc1 (stereo not given)"
  assayTarget: "SR"
  labelValue: "inactive"
- compound: "CC1(C)CC2C(/C1=N/O)C1(C)CCCC2(C)C1O (stereo not given)"
  assayTarget: "SR"
  labelValue: "inactive"
- compound: "COC(=O)C(NC(=O)CSc1nnc(COc2ccc(Cl)cc2)n1-c1ccccc1)C(C)C (stereo not given)"
  assayTarget: "SR"
  labelValue: "active"
- compound: "COc1ccc(C2=C(N)c3c(OC)cccc3C2=O)cc1"
  assayTarget: "SR"
  labelValue: "inactive"
- compound: "O=C(CN1C(=O)c2ccccc2C1=O)NC1(C(=O)O)CCCC1"
  assayTarget: "SR"
  labelValue: "inactive"
- compound: "COc1ccc(/C=C2\\CCC(C)C3=C2NC(=S)NC3c2ccc(OC)c(OC)c2)cc1OC (stereo not given)"
  assayTarget: "SR"
  labelValue: "inactive"
- compound: "O=C1c2c(Br)sc(Br)c2[C@@H](NC(=O)C(F)(F)F)C1Br (stereo not given in full)"
  assayTarget: "SR"
  labelValue: "inactive"
- compound: "CC12OOC(c3ccccc31)c1c2ccc2ccccc12 (stereo not given)"
  assayTarget: "SR"
  labelValue: "active"
- compound: "CC1(C)CC(Nc2ccc(Nc3ccccc3)cc2)CC(C)(C)N1"
  assayTarget: "SR"
  labelValue: "inactive"
